Each recorded value in this set is attributed to the supplement of paper PMC10307832.

- Test system: SW 900
- Assay Name: relative viability (nuclei count vs DMSO), 5 days (fraction); higher = more cells survive
- Condition Info: first compound 0.02 µM
Field: label. Allowed values: MET (relative viability < 0.5) or NOT MET (relative viability >= 0.5).

Use the examples below as a reference point.
CCNC(=O)c1noc(-c2cc(C(C)C)c(O)cc2O)c1-c1ccc(CN2CCOCC2)cc1 [Luminespib] + CC(=O)Nc1cccc(-n2c(=O)n(C3CC3)c(=O)c3c(Nc4ccc(I)cc4F)n(C)c(=O)c(C)c32)c1 [Trametinib] (partner 0.02 µM) ... NOT MET
CCNC(=O)c1noc(-c2cc(C(C)C)c(O)cc2O)c1-c1ccc(CN2CCOCC2)cc1 [Luminespib] + Nc1ncn([C@H]2C[C@H](O)[C@@H](CO)O2)c(=O)n1 [Decitabine] (partner 2 µM) ... MET
CN1CCN(CCOc2cc(OC3CCOCC3)c3c(Nc4c(Cl)ccc5c4OCO5)ncnc3c2)CC1 [Saracatinib] + CC(=O)c1c(C)c2cnc(Nc3ccc(N4CCNCC4)cn3)nc2n(C2CCCC2)c1=O [Palbociclib] (partner 0.5 µM) ... NOT MET
CN1CCN(CCOc2cc(OC3CCOCC3)c3c(Nc4c(Cl)ccc5c4OCO5)ncnc3c2)CC1 [Saracatinib] + O=C(c1cc(Cc2n[nH]c(=O)c3ccccc23)ccc1F)N1CCN(C(=O)C2CC2)CC1 [Olaparib] (partner 8 µM) ... NOT MET

Alright, here's another compound for you.
Dear reviewer, please state whether CCNC(=O)c1noc(-c2cc(C(C)C)c(O)cc2O)c1-c1ccc(CN2CCOCC2)cc1 [Luminespib] + O=C(CCCCCCC(=O)Nc1ccccc1)NO [Vorinostat] (partner 1 µM) has relative viability strictly beneath 0.5.
MET

###

- Tested on: NCI-H2405
- Assay Name: relative viability (nuclei count vs DMSO), 5 days (fraction); higher = more cells survive
- Condition Info: first compound 2 µM
Kindly apply the following: y if relative viability is less than 0.5, n in every other case.

CN1CCN(CCOc2cc(OC3CCOCC3)c3c(Nc4c(Cl)ccc5c4OCO5)ncnc3c2)CC1 [Saracatinib] + CS(=O)(=O)N1CCN(Cc2cc3nc(-c4cccc5[nH]ncc45)nc(N4CCOCC4)c3s2)CC1 [Pictilisib] (partner 1 µM) ... y

Is it true that relative viability reported for Cc1csc(=NC2CCCCC2)n1/N=C/c1ccc(O)c(O)c1O [MIM1] + Cc1cc(Nc2cc(N3CCN(C)CC3)nc(Sc3ccc(NC(=O)C4CC4)cc3)n2)n[nH]1 [Tozasertib] (partner 0.1 µM) is less than 0.5?
n

Does this compound meet the criterion relative viability < 0.5? CN1CCN(CCOc2cc(OC3CCOCC3)c3c(Nc4c(Cl)ccc5c4OCO5)ncnc3c2)CC1 [Saracatinib] + COc1cccc2cc(-c3nc([C@H]4CC[C@H](C(=O)O)CC4)n4ncnc(N)c34)[nH]c12 [OSI-027] (partner 0.5 µM)
y

Strictly below 0.5: is that where relative viability of Cc1csc(=NC2CCCCC2)n1/N=C/c1ccc(O)c(O)c1O [MIM1] + CC(=O)Nc1cccc(-n2c(=O)n(C3CC3)c(=O)c3c(Nc4ccc(I)cc4F)n(C)c(=O)c(C)c32)c1 [Trametinib] (partner 0.02 µM) sits?
n

Is relative viability of Cc1csc(=NC2CCCCC2)n1/N=C/c1ccc(O)c(O)c1O [MIM1] + COc1cc2c(Oc3ccc(NC(=O)C4(C(=O)Nc5ccc(F)cc5)CC4)cc3F)ccnc2cc1OCCCN1CCOCC1 [Foretinib] (partner 0.25 µM) strictly below 0.5?
n

###

- Tested on: NCI-H2405
- Assay Name: relative viability (nuclei count vs DMSO), 5 days (fraction); higher = more cells survive
- Condition Info: first compound 0.06325 µM
Measurement Label: relative viability

Solved entries (count: 2):
CCNC(=O)c1noc(-c2cc(C(C)C)c(O)cc2O)c1-c1ccc(CN2CCOCC2)cc1 [Luminespib] + C[C@]1(O)C[C@@H](c2nc(-c3ccc4ccc(-c5ccccc5)nc4c3)c3c(N)nccn32)C1 [Linsitinib] (partner 1 µM) ... 0.254
CCNC(=O)c1noc(-c2cc(C(C)C)c(O)cc2O)c1-c1ccc(CN2CCOCC2)cc1 [Luminespib] + CC(=O)c1c(C)c2cnc(Nc3ccc(N4CCNCC4)cn3)nc2n(C2CCCC2)c1=O [Palbociclib] (partner 0.5 µM) ... 0.172

Now for another entry.
Data request, read-out relative viability, for CCNC(=O)c1noc(-c2cc(C(C)C)c(O)cc2O)c1-c1ccc(CN2CCOCC2)cc1 [Luminespib] + N=C(N)NC(=N)NCCc1ccccc1 [Phenformin] (partner 250 µM)
0.193

###

- Test system: NCI-H522
- Assay Name: relative viability (nuclei count vs DMSO), 5 days (fraction); higher = more cells survive
- Condition Info: first compound 0.02 µM
Measurement Label: relative viability
One number for each entry.

CN1CCN(CCOc2cc(OC3CCOCC3)c3c(Nc4c(Cl)ccc5c4OCO5)ncnc3c2)CC1 [Saracatinib] + O=C(CCCCCCC(=O)Nc1ccccc1)NO [Vorinostat] (partner 1 µM) ... 0.856
CN1CCN(CCOc2cc(OC3CCOCC3)c3c(Nc4c(Cl)ccc5c4OCO5)ncnc3c2)CC1 [Saracatinib] + CCNC(=O)c1noc(-c2cc(C(C)C)c(O)cc2O)c1-c1ccc(CN2CCOCC2)cc1 [Luminespib] (partner 0.01 µM) ... 1.13
CN1CCN(CCOc2cc(OC3CCOCC3)c3c(Nc4c(Cl)ccc5c4OCO5)ncnc3c2)CC1 [Saracatinib] + Nc1nc2[nH]cc(CCc3ccc(C(=O)N[C@@H](CCC(=O)O)C(=O)O)cc3)c2c(=O)[nH]1 [Pemetrexed] (partner 0.2 µM) ... 1.15
CN1CCN(CCOc2cc(OC3CCOCC3)c3c(Nc4c(Cl)ccc5c4OCO5)ncnc3c2)CC1 [Saracatinib] + NC(=O)Nc1cc(-c2cccc(F)c2)sc1C(=O)N[C@H]1CCCNC1 [AZD7762] (partner 0.2 µM) ... 0.961
CCNC(=O)c1noc(-c2cc(C(C)C)c(O)cc2O)c1-c1ccc(CN2CCOCC2)cc1 [Luminespib] + COc1cccc2cc(-c3nc([C@H]4CC[C@H](C(=O)O)CC4)n4ncnc(N)c34)[nH]c12 [OSI-027] (partner 0.5 µM) ... 0.615

// moving on: another record for relative viability
I'd like to know its relative viability. The compound in question is CCNC(=O)c1noc(-c2cc(C(C)C)c(O)cc2O)c1-c1ccc(CN2CCOCC2)cc1 [Luminespib] + O=C(CCCCCCC(=O)Nc1ccccc1)NO [Vorinostat] (partner 1 µM)
0.772

###

Assign relative viability to each entry below.
- Tested on: UMC-11
- Assay Name: relative viability (nuclei count vs DMSO), 5 days (fraction); higher = more cells survive
- Condition Info: first compound 2 µM
Give bare numbers.

Hello, I would appreciate it if you could give relative viability for each entry below.
1. CN1CCN(CCOc2cc(OC3CCOCC3)c3c(Nc4c(Cl)ccc5c4OCO5)ncnc3c2)CC1 [Saracatinib] + C[C@]1(O)C[C@@H](c2nc(-c3ccc4ccc(-c5ccccc5)nc4c3)c3c(N)nccn32)C1 [Linsitinib] (partner 1 µM)
2. CN1CCN(CCOc2cc(OC3CCOCC3)c3c(Nc4c(Cl)ccc5c4OCO5)ncnc3c2)CC1 [Saracatinib] + Cc1nc(NC(=O)N2CCC[C@H]2C(N)=O)sc1-c1ccnc(C(C)(C)C(F)(F)F)c1 [Alpelisib] (partner 2 µM)
3. Cc1csc(=NC2CCCCC2)n1/N=C/c1ccc(O)c(O)c1O [MIM1] + C[C@]1(O)C[C@@H](c2nc(-c3ccc4ccc(-c5ccccc5)nc4c3)c3c(N)nccn32)C1 [Linsitinib] (partner 1 µM)
4. Cc1csc(=NC2CCCCC2)n1/N=C/c1ccc(O)c(O)c1O [MIM1] + Cc1cc(Nc2cc(N3CCN(C)CC3)nc(Sc3ccc(NC(=O)C4CC4)cc3)n2)n[nH]1 [Tozasertib] (partner 0.1 µM)

1. 0.8
2. 0.768
3. 1.02
4. 0.196

Need relative viability for each of these molecules.
1. Cc1csc(=NC2CCCCC2)n1/N=C/c1ccc(O)c(O)c1O [MIM1] + Cc1nc(Nc2ncc(C(=O)Nc3c(C)cccc3Cl)s2)cc(N2CCN(CCO)CC2)n1 [Dasatinib] (partner 0.075 µM)
2. CN1CCN(CCOc2cc(OC3CCOCC3)c3c(Nc4c(Cl)ccc5c4OCO5)ncnc3c2)CC1 [Saracatinib] + Nc1ncn([C@H]2C[C@H](O)[C@@H](CO)O2)c(=O)n1 [Decitabine] (partner 2 µM)
3. CN1CCN(CCOc2cc(OC3CCOCC3)c3c(Nc4c(Cl)ccc5c4OCO5)ncnc3c2)CC1 [Saracatinib] + CS(=O)(=O)N1CCN(Cc2cc3nc(-c4cccc5[nH]ncc45)nc(N4CCOCC4)c3s2)CC1 [Pictilisib] (partner 1 µM)
4. Cc1csc(=NC2CCCCC2)n1/N=C/c1ccc(O)c(O)c1O [MIM1] + CC(C)C[C@H](NC(=O)[C@H](Cc1ccccc1)NC(=O)c1cnccn1)B(O)O [Bortezomib] (partner 0.002 µM)
5. Cc1csc(=NC2CCCCC2)n1/N=C/c1ccc(O)c(O)c1O [MIM1] + COc1cccc2cc(-c3nc([C@H]4CC[C@H](C(=O)O)CC4)n4ncnc(N)c34)[nH]c12 [OSI-027] (partner 0.5 µM)

1: 0.532; 2: 0.533; 3: 0.679; 4: 0.774; 5: 0.579
